tested on: Plasmodium falciparum; experiment: Confirmatory screen in NF54 nanoGlo assay, in single point, at 2uM, 72h; type: functional, Erythrocyte; conditions: timepoint 72 hour
The campaign covered roughly 4,800 compounds. About 420 (8.8%) showed an effect of 50% or more. This is one part of a sample in which strong results are shown more often than they occur.
The reader will find reported % Inhibition values listed item by item below.
Write the value in % as a bare number.

Recorded results for 10 compounds are shown here.
compound	measured-parameter	data-value
O=c1cc2n(c(=O)[nH]1)CC(c1ccccc1)=NN2	% Inhibition	4
CC(=O)N1CCC(Nc2ccc3c(c2)CCC(=O)N3)CC1	% Inhibition	-17
COCCN1CC2(CCCC2)N(C(=O)COc2ccc(F)cc2)CC1=O	% Inhibition	-7
Cc1nnc2sc(Nc3ccccc3)nn12	% Inhibition	-2
O=C(c1ccc(O)cc1)C1CCN(C[C@H](O)C(F)(F)F)CC1	% Inhibition	5
Cn1cccc1CNCc1ccncc1	% Inhibition	0
COC(=O)C1NS(=O)(=O)c2ccc(Cl)cc2C1(O)c1ccccc1F (configuration not stated)	% Inhibition	-5
COc1ccccc1[C@H]1CC(O)=Nc2c1ncn2-c1cc(F)ccc1F	% Inhibition	-3
CN(Cc1ccccc1)C(=O)C[C@H]1CCN(C(=O)c2cnccn2)C1	% Inhibition	-1
O=C(c1ccco1)N1CC(n2cnnc2[C@@H]2CCCO2)C1	% Inhibition	-2

-- ask Which measured % Inhibition value corresponds to `Cc1nc2cc(NC(=O)c3cccs3)ccc2o1` ?
-- reply -8

-- ask Can you check `CC(C)(CNC(=O)[C@](C)(N)c1ccccc1)C(=O)O` next?
-- reply -11

src = ChEMBL document CHEMBL4888484
